Provide the reported inhibition at 0.1 µM of each item.
Biological target: sEH enzyme (human recombinant) (Homo sapiens)
Construct: purchased Cayman Chemical
Sequence (P34913 whole entry): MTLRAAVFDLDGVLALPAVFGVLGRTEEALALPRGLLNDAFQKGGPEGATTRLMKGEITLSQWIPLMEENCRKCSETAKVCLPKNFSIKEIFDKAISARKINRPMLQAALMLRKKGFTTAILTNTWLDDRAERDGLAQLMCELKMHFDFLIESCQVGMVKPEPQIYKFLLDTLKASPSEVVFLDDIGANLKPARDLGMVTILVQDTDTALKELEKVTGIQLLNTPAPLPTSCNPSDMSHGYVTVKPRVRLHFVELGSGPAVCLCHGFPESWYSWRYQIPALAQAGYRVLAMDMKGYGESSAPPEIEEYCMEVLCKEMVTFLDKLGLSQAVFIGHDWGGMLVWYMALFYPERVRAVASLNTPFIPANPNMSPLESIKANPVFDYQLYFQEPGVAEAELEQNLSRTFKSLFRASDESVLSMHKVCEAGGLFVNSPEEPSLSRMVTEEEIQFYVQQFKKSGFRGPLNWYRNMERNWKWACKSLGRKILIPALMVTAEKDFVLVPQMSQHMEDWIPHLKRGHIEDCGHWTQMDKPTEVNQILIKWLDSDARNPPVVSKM
Assay: in vitro sEH enzyme activity by fluorescence analysis, single concentration inhibition
Format: biochemical
Details: compound 0.1 μM; human recombinant sEH; PHOME substrate; 37° C. 15 min; read-out: sEH % inhibition, @ 0.1 μM
Method: The benzothiazole skeleton compounds (concentration: 0.1 μM) according to the above formula I of the present invention were tested for the in vitro sEH enzyme activity by fluorescence analysis. 12 μL of sEH enzyme (human recombinant, 0.5 mg/mL, Cayman Chemical) was diluted with 588 μL of buffer (25 mM bis-Tris, pH 7.0). […] After incubating at 37° C. for 15 min, the fluorescence signal was measured with a microplate reader (excitation wavelength 330 nm, emission wavelength 465 nm). […]
Numbers only, in %.

> print(dat)
                               input.smiles  assay.result
1  CC(C)(C)OC(=O)Nc1nc2ccc(N(CCN3CCOCC3)C(=O)Cc3ccc(Cl)cc3)cc2s1          70.9
2  Nc1nc2ccc(N(CCN3CCOCC3)C(=O)Nc3ccc(OC(F)(F)F)cc3)cc2s1          70.3

Query molecule follows.
Incoming: Can you look up inhibition at 0.1 µM on sEH enzyme (human recombinant) (Homo sapiens) for `CN(C)CCN(C(=O)Nc1ccc(Cl)cc1)c1ccc2nc(N)sc2c1` ?
Outgoing: 70.4
